system: Panc-1; assay: MTS cell proliferation assay, Panc-1; type: cell-based, human; conditions: Homo sapiens, PANC-1; Table 2 numbering 1-14; read-out: IC50 Panc-1 (Table 2)
pIC50: −log10 of the molar value.
recorded.endpoint: pIC50

(I) O=C(Nc1ccc2c(c1)S(=O)(=O)C=C2)c1cc(Cl)ccc1O [Compound 1]
(II) COC1CS(=O)(=O)c2cc(NC(=O)c3cc(Cl)ccc3O)ccc21 (centres unmarked) [Compound 14]
Field: entry with larger pIC50 (options I / II ). Answer = label. I
(I: 5.63, II: 5.08)

====

recorded.endpoint: melting point

CN(C)c1ccc(/C=C(\C#N)C(=O)Nc2ccc3c(c2)S(=O)(=O)C=C3)cc1    279 to 280 °C
N#C/C(=C\c1ccc(F)cc1)C(=O)Nc1ccc2c(c1)S(=O)(=O)C=C2    271 to 272 °C
COc1ccccc1/C=C(\C#N)C(=O)Nc1ccc2c(c1)S(=O)(=O)C=C2    223 to 224 °C

Pending compound:
melting point for `N#C/C(=C\c1ccc(O)cc1)C(=O)Nc1ccc2c(c1)S(=O)(=O)C=C2` ? 306 to 307 °C
